Please respond with reported composite z-score for every item in the list.
tested on: Human papillomavirus type 1a E7 protein (residues 1-88); experiment: HPV1a E7 small-molecule binders, primary screen, biochemical, small-molecule microarray, residues 1-88, 635 nm (AID 1129); settings: small-molecule microarray binding, fluorescence 635 nm; higher = more signal
One number for each entry.

Example results:
COC(=O)[C@@]1(Cc2ccc(F)cc2)[C@H]2c3cc(C(=O)N(C)C)n(Cc4ccsc4Br)c3C[C@H]2CN1C(=O)c1ccccc1 | 1.12
C[N+](C)(C)CCCC[C@@H]1NC(=O)[C@H]2C[C@@H](C(=O)O)[C@@H](c3ccc(O)cc3)N2C1=O | 0.123

Consider the additional compound presented here.
Prompt: Write down the reported composite z-score of C=CCOC(=O)[C@@H]1[C@H]2C(=O)O[C@H](c3ccccc3)[C@H](c3ccccc3)N2[C@H](c2ccc(OCCOC(=O)[C@H]3C[C@H]4C(=O)N[C@@H](CCCCN(C)C)C(=O)N4[C@H]3c3cccc(OCCO)c3)cc2)[C@@]12C(=O)Nc1ccccc12 , test system: Human papillomavirus type 1a E7 protein (residues 1-88).
Response: -0.246

====

assay: yeast growth modulation, basal conditions, primary screen, YJM789 clinical isolate, OD600, 24 h (AID 1089);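 note: growth of clinical yeast isolate S. cerevisiae YJM 789 seeded 1000 cells per well; test concentration not given here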; details: S. cerevisiae YJM789 growth, higher = more signal, called active from +8 up or from −8 down
The label depends only on z-score: yes if it is at least -0.8, no if it is smaller.

Examples from the recorded data:
C=CCOC(=O)[C@H]1[C@@H]2C(=O)O[C@@H](c3ccccc3)[C@@H](c3ccccc3)N2[C@@H](c2ccc(OCCOC(=O)[C@H]3C[C@H]4C(=O)NCC(=O)N4[C@H]3c3ccc(O)cc3)cc2)[C@]12C(=O)Nc1ccccc12 | yes
CCOC(=O)C[C@H]1[C@H](OC(=O)c2ccccc2-c2ccccc2)[C@@H](NC(=O)CC(C)C)c2cc(OCCCO)ccc2N1C(=O)c1ccccc1 | no
CCCN1C(=O)[C@@]2(c3ccc([N+](=O)[O-])cc3)CC(=O)N(C3CCCCC3)[C@@H]2c2ccc(CO)cc21 | yes

Prompt: z-score >= -0.8 for CCCC=C(CCC)[C@@H](NC(=O)c1ccc(C(=O)OC)cc1)c1ccc(C(=O)OC)cc1 ?
Response: yes

Prompt: Has C=CCNC(=O)[C@@H]1[C@H]2C(=O)O[C@H](c3ccccc3)[C@H](c3ccccc3)N2[C@H](c2ccc(O)cc2)[C@@]12C(=O)N(C(=O)OCCOC)c1ccc(C#CCC(C(=O)OC)C(=O)OC)cc12 a recorded z-score greater than or equal to -0.8?
Response: yes

Prompt: Check the entry COC(=O)C1(CC(C)C)C=C2C(=C(C)C(=O)C2C)CN1 (configuration not stated) : does z-score equal or exceed -0.8?
Response: yes

Prompt: Dear colleague, could you confirm whether CC(C)N1CC=CC23O[C@@H]4/C=C\CCCOC(=O)C4[C@H]2C(=O)N(C(C)CO)[C@@H]3C1=O (some centres not stated) has z-score at or above -0.8?
Response: no

Prompt: API: above_or_equal(metric=z-score, cutoff=-0.8) for item CN1C(=O)C2C=CC(C(O)c3cccs3)N(N(c3ccccc3)c3ccccc3)C2C1=O (configuration not stated)
Response: yes

====

test: small-molecule microarray binders of probe aDKK1, primary screen, biochemical, biotinylated probe, 635/667 nm fluorescence (AID 1099); settings: higher = more signal;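 note: score merges 667nm spot fluorescence with signal to noise across triplicate slides; reference of the scale not given here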
Output Y for composite z-score not less than -0.2; output N otherwise.

C[C@@]1([C@@H](NS(=O)(=O)c2cccc3cccnc23)c2ccc(-c3ccccc3)cc2)C[C@H]1C1CCCCC1 | Y

Would you kindly look at the next entry?
Prompt: Textbook exercise: given the entry O=C1OCCC/C=C\[C@H]2OC34C=CCN(Cc5ccccc5)C(=O)[C@H]3N(CCO)C(=O)[C@@H]4C12 (stereo not given in full) , state whether its composite z-score is greater than or equal to -0.2.
Response: N
